Each recorded value in this set is attributed to ChEMBL document CHEMBL1155121.

Molecular target: Human immunodeficiency virus type 1 integrase (Human immunodeficiency virus 1)
Sequence (Q7ZJM1 whole entry): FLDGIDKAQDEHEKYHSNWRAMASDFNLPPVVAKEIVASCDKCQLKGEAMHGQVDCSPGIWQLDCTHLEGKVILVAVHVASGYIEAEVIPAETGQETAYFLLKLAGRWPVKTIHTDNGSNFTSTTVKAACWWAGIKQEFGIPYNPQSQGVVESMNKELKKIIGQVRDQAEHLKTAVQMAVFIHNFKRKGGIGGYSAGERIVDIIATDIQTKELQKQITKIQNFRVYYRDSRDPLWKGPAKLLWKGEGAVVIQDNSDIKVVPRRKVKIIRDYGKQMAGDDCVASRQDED
Experiment: Inhibition of recombinant HIV1 integrase strand transfer activity
pIC50: −log10 of the molar value.
# pIC50 per entry
measurement-type: pIC50

                                   molecule                         target_under_test  reported_value
0  O=C(NCc1ccc(F)cc1)C1=C(O)C(=O)N(CCN2CCOCC2)C1C(=O)NCc1ccc(F)cc1 (stereo not drawn)  Human immunodeficiency virus type 1 integrase (Human immunodeficiency virus 1)          < 6.00
1  CN1C(=O)C(O)=C(C(=O)NCc2ccc(F)cc2)C1c1ccccc1 (stereo not drawn)  Human immunodeficiency virus type 1 integrase (Human immunodeficiency virus 1)          < 6.00
2  O=C(NCc1ccc(F)cc1)C1=C(O)C(=O)N(CCN2CCCCC2)C1  Human immunodeficiency virus type 1 integrase (Human immunodeficiency virus 1)          < 6.00
